Target system: hAT1R (Homo sapiens, UniProt P30556)
Sequence (P30556 1-359): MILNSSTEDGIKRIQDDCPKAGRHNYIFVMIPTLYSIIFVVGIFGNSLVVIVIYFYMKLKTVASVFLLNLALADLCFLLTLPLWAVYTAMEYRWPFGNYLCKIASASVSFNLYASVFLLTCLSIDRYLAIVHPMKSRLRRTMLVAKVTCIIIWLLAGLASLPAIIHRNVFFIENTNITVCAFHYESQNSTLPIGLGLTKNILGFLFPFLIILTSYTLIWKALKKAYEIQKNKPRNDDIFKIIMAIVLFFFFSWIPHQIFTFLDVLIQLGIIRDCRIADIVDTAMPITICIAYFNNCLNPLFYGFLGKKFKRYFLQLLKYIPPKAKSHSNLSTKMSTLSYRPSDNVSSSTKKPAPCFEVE
Experimental protocol: cell-based
Test parameters: agonist mode; read-out: BRET P63 EC50
Please provide measured pEC50 for the entries that follow.
One number for each entry, as −log10 of the molar value.

- CCc1nc2c(C)cc(C)nc2n1Cc1ccc(-c2cc(-c3ccc(C(=O)N(C)C)cc3)ccc2C(=O)O)cc1: 6.35
- CCc1nc2c(C)cc(C)nc2n1Cc1ccc(-c2cc(-c3cccc(C)c3)ccc2C(=O)O)cn1: 6.58

The following compounds each have a reported value; give each one's pEC50.
1. CC1=NC2(CCOC2)C(=O)N1Cc1ccc(-c2cc(-c3ccccc3)ccc2-c2nn[nH]n2)cc1 (single isomer, unassigned)
2. CCc1nc2c(C)cc(C)nc2n1Cc1ccc(-c2cc(-n3cnc(C)c3)ccc2-c2nnn[nH]2)cc1
3. CCC1=NC2(CCCC2)C(=O)N1Cc1ccc(-c2cc(-c3ccccc3)ccc2-c2nn[nH]n2)cc1
4. CCCCC1=NC2(CCOCC2)C(=O)N1Cc1ccc(-c2cc(-c3ccccc3O)ccc2-c2nnn[nH]2)cc1
5. CCc1nc2c(C)cc(C)nc2n1Cc1ccc(-c2cc(-c3cn(C)nn3)ccc2-c2nnn[nH]2)cc1
6. CCc1nc2c(C)cc(C)nc2n1Cc1ccc(-c2cc(-c3ccccn3)ccc2-c2nn[nH]n2)cc1
7. CCCCc1ncc(C(=O)NCc2cnn(C)c2)n1Cc1ccc(-c2cc(-c3ccccc3)ccc2-c2nn[nH]n2)cc1
8. CC1=NC2(CCOCC2)C(=O)N1Cc1ccc(-c2cc(-c3cc(C)ccn3)ccc2-c2nn[nH]n2)cc1

1: 6.11; 2: 7.55; 3: 7.33; 4: 7.42; 5: 7.38; 6: 7.72; 7: 7.71; 8: 7.10

* * *

Target system: AGTR1 (Homo sapiens, UniProt P30556)
Construct: host or cells: Pathunter CHO-K1 AGTR1 β-arrestin cell line (CHO-K1)
Experimental protocol: DiscoveRx IP1 accumulation assay (HTRF), agonist mode, Pathunter CHO-K1 AGTR1 β-arrestin cell line
Assay type: cell-based
Attribute measured: IP-1 Ymax (%)
Numbers only, in %.

The following compounds each have a reported value; give each one's IP-1 Ymax (%).
1. COc1ccnc(-c2ccc(-c3nn[nH]n3)c(-c3ccc(CN4C(=O)C5(CCCC5)N=C4C4CC4)cc3)c2)c1
2. CCCCC1=NC2(CCOC2)C(=O)N1Cc1ccc(-c2cc(-c3ccccc3)ccc2-c2nnn[nH]2)cc1 (single isomer, unassigned) [Example 147]
3. CCCCC1=NC2(CCCC2)C(=O)N1Cc1ccc(-c2cc(-c3cccc(C)n3)ccc2-c2nn[nH]n2)cc1

1. 18.4
2. 3.6
3. 6.3

The following compounds each have a reported value; give each one's IP-1 Ymax (%).
1. CCCCOC(=O)NS(=O)(=O)c1sc(-c2ccccc2C)cc1-c1ccc(Cn2c(CC)nc3c(C)cc(C)nc32)cn1
2. CCc1nc2c(C)cc(C)nc2n1Cc1ccc(-c2cc(N3CCCC(F)(F)C3)ccc2-c2nn[nH]n2)cc1
3. CCCCC1=NC2(CCOC2)C(=O)N1Cc1ccc(-c2cc(-c3cc(C)ccn3)ccc2-c2nnn[nH]2)cc1 (single isomer, unassigned)

1: 4.8; 2: 9.0; 3: 14.4

* * *

Target system: AGTR1 (Homo sapiens, UniProt P30556)
Construct: host or cells: Pathunter CHO-K1 AGTR1 β-arrestin cell line (CHO-K1)
Experimental protocol: DiscoveRx β-arrestin2 recruitment assay (enzyme complementation, Pathunter CHO-K1 AGTR1 β-arrestin cell line)
Assay type: cell-based
Test parameters: DiscoveRx β-arrestin2 recruitment, maximal response
Attribute measured: DiscoveRx β-arrestin2 Ymax (%)
Give bare numbers, in %.

Completed entries (count: 3):
• CCCCc1nc(Cl)c(C(=O)O)n1Cc1ccc(-c2cc(N3CCC[C@H](C)C3)ccc2-c2noc(=O)[nH]2)cc1 = 24.6
• CCCCc1nc(Cl)c(C(=O)O)n1Cc1ccc(-c2cc(Oc3ccccn3)ccc2-c2nn[nH]n2)cc1 = 19.6
• CCCCC1=NC2(CCCC2)C(=O)N1Cc1ccc(-c2cc(-c3cc(C)ccn3)ccc2-c2nn[nH]n2)cc1 = 50.1

Give the measured DiscoveRx β-arrestin2 Ymax (%) of `CCc1nc2c(C)cc(C)nc2n1Cc1ccc(-c2cc(-c3ccc(F)cc3F)ccc2-c2nn[nH]n2)cc1` .
39.5

* * *

Target system: hAT1R (Homo sapiens, UniProt P30556)
Sequence (P30556 1-359): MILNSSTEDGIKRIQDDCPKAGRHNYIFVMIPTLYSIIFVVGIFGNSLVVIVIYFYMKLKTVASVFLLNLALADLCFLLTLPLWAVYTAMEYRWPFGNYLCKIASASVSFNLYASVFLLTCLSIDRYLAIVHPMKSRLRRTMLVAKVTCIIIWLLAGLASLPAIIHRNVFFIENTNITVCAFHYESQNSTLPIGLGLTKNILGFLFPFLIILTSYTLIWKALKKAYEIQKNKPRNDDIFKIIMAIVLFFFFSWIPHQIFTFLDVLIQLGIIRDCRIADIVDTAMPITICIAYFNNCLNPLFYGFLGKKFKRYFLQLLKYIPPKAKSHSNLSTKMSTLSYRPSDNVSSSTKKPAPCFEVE
Experimental protocol: cell-based
Test parameters: agonist mode
Please provide measured BRET P63 Ymax for the entries that follow.
Give bare numbers, in %.

Completed entries (count: 3):
- CC1=NC2(CCOCC2)C(=O)N1Cc1ccc(-c2cc(-c3cc(C)ccn3)ccc2-c2nn[nH]n2)cc1: 19.3
- CCCCC(=O)N(Cc1ccc(-c2cc(-c3cccc(OC)n3)ccc2-c2nn[nH]n2)cc1)[C@H](C(=O)O)C(C)C: 4.5
- CCOc1nc2cccc(C(=O)O)c2n1Cc1ccc(-c2cc(-c3ccccc3)ccc2-c2noc(=O)[nH]2)cc1: 13.2

The following compounds each have a reported value; give each one's BRET P63 Ymax.
1. CCc1nc2c(C)cc(C)nc2n1Cc1ccc(-c2cc(-c3ccc(F)cn3)ccc2-c2nn[nH]n2)cc1
2. CCc1nc2c(C)cc(C)nc2n1Cc1ccc(-c2cc(-c3cccc(C(F)(F)F)n3)ccc2-c2nn[nH]n2)cc1
3. CCCC1=NC2(CCCC2)C(=O)N1Cc1ccc(-c2cc(-c3cc(OC)ccn3)ccc2-c2nn[nH]n2)cc1

13.1
6.4
22.1

Any idea what BRET P63 Ymax came out for `CCC1=NC2(CCCC2)C(=O)N1Cc1ccc(-c2cc(-c3ccccc3)ccc2-c2nn[nH]n2)cc1` on hAT1R (Homo sapiens, UniProt P30556)?
8.2

* * *

Target system: AGTR1 (Homo sapiens, UniProt P30556)
Construct: host or cells: Pathunter CHO-K1 AGTR1 β-arrestin cell line (CHO-K1)
Experimental protocol: DiscoveRx IP1 accumulation assay (HTRF), agonist mode, Pathunter CHO-K1 AGTR1 β-arrestin cell line
Format: cell-based
Attribute measured: IP-1 Ymax (%)
Answers are plain numbers, in %.

Completed entries (count: 5):
• CCc1nc2c(C)cc(C)nc2n1Cc1ccc(-c2cc(N3CCCC(C)(C)C3)ccc2-c2nn[nH]n2)cc1 [Example 98] = 6.6
• CCc1nc2c(C)cc(C)nc2n1Cc1ncc(-c2cc(-c3cccc(C)c3)ccc2-c2nnn[nH]2)cn1 [Example 188] = 24.2
• CCc1nc2c(C)cc(C)nc2n1Cc1ncc(-c2cc(-c3ccccc3)ccc2-c2nnn[nH]2)cn1 [Example 190] = 17.5
• CCc1nc2c(C)cc(C)nc2n1Cc1ccc(-c2cc(-n3cc(CCO)nn3)ccc2-c2nnn[nH]2)cc1 [Example 226] = 6.7
• CCc1nc2c(C)cc(C)nc2n1Cc1ccc(-c2cc(-c3cn(C)nn3)ccc2-c2nnn[nH]2)cc1 [Example 243] = 14.7

The following compounds each have a reported value; give each one's IP-1 Ymax (%).
1. CCc1nc2c(C)cc(C)nc2n1Cc1ccc(-c2cc(N3CCCCCC3)ccc2-c2nn[nH]n2)cc1 [Example 95]
2. CCc1nc2c(C)cc(C)nc2n1Cc1ccc(-c2cc(-n3cc(C)nn3)ccc2-c2nnn[nH]2)cc1 [Example 232]

6.3
7.5

The following compounds each have a reported value; give each one's IP-1 Ymax (%).
1. CCc1nc2c(C)cc(C)nc2n1Cc1cnc(-c2cc(-c3ccccc3)ccc2-c2nnn[nH]2)cn1 [Example 187]
2. CCc1nc2c(C)cc(C)nc2n1Cc1ccc(-c2cc(-c3cccc(C)c3)ccc2-c2nnn[nH]2)cn1 [Example 177]

16.1
22.9

The following compounds each have a reported value; give each one's IP-1 Ymax (%).
1. CCc1nc2c(C)cc(C)nc2n1Cc1ccc(-c2cc(Oc3cccnc3F)ccc2-c2nn[nH]n2)cc1 [Example 262]
2. CCc1nc2c(C)cc(C)nc2n1Cc1ccc(-c2cc(Oc3ncccc3Cl)ccc2-c2nn[nH]n2)cc1 [Example 255]
3. CCCC1=NC2(CCOC2)C(=O)N1Cc1ccc(-c2cc(-c3cccc(C)c3)ccc2-c2nnn[nH]2)cc1 (single isomer, unassigned) [Example 159]
4. CCCCC1=NC2(CCCC2)C(=O)N1Cc1ccc(-c2cc(-c3ccc(OC(F)F)cn3)ccc2-c2nn[nH]n2)cc1 [Example 136]

1. 8.6
2. 7.8
3. 11.3
4. 18.1

The following compounds each have a reported value; give each one's IP-1 Ymax (%).
1. CCc1nc2c(C)cc(C)nc2n1Cc1ccc(-c2cc(-n3ncc4ccccc43)ccc2-c2nnn[nH]2)cc1 [Example 215]
2. CCc1nc2c(C)cc(C)nc2n1Cc1ccc(-c2cc(OC3CCCCC3)ccc2-c2nnn[nH]2)cc1 [Example 209]

1: 17.3; 2: 25.5
